system tested: somatostatin receptor type 2 (SSTR2) (UniProt P30874 1-369)
Sequence (P30874 whole entry): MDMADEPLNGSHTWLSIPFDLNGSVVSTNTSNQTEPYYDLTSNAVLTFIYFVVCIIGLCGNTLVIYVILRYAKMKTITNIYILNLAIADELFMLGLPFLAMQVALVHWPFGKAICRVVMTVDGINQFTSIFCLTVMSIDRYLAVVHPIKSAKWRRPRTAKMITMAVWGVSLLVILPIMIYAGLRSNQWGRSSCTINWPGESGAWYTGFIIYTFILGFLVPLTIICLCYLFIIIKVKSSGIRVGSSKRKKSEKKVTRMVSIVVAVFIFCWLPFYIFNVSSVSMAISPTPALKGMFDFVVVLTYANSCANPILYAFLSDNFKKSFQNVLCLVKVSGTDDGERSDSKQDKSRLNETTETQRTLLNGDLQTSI
test method notes: cell-based or functional assay
observable: IC50 (PathHunter β-Arrestin, antagonist mode) (nM)
Numbers only here, please. The scale is nM.

Input line: Determine from records and report IC50 (PathHunter β-Arrestin, antagonist mode) for XXYXKTCX (HELM PEPTIDE1{[N[C@@H](Cc1ccc(Cl)cc1)C(=O)[*:2]].[dC].Y.[O=C([C@@H](Cc1ccc(N[*:3])cc1)N[*:1])[*:2]].K.T.C.[dY].[am]}|PEPTIDE2{G}$PEPTIDE1,PEPTIDE2,4:R3-1:R2|PEPTIDE1,PEPTIDE1,2:R3-7:R3$$$V2.0; SMILES C[C@@H](O)[C@@H]1NC(=O)[C@H](CCCCN)NC(=O)[C@@H](Cc2ccc(NC(=O)CN)cc2)NC(=O)[C@H](Cc2ccc(O)cc2)NC(=O)[C@H](NC(=O)[C@@H](N)Cc2ccc(Cl)cc2)CSSC[C@@H](C(=O)N[C@H](Cc2ccc(O)cc2)C(N)=O)NC1=O) [Compound 8: H-Cpa-cyclo[DCys-Tyr-D-4-(Gly)Aph-Lys-Thr-Cys]-DTyr-NH2]
Output line: 84

Reference for the values: patent US20190040102A1
